Biological target: μ-opioid receptor (Rattus norvegicus)
Construct: the forebrains are homogenized in Tris buffer in a Teflon®-glass homogenizer; from tissue; host or cells: rat (male Wistar) forebrain, particulate membrane preparation
Sequence (P33535 whole entry): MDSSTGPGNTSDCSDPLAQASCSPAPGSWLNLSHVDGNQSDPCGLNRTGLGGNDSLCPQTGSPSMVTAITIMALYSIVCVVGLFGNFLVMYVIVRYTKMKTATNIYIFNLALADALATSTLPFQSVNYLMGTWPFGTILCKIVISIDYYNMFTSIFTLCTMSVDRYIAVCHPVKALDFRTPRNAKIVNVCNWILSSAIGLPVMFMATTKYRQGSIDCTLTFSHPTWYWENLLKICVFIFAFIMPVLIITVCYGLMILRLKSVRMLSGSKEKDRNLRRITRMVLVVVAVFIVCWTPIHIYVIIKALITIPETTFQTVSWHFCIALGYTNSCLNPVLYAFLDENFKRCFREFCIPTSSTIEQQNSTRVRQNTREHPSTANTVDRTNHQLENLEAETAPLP
Assay: Rat brain μ-opioid receptor binding assay
Conditions: rat forebrain particulate preparation, [3H]DAMGO, 25° C.; read-out: Ki (nM) μ
Description: Rat Brain μ-Opioid Receptor Binding Assay Male, Wistar rats (150-250 g, VAF, Charles River, Kingston, N.Y.) are killed by cervical dislocation and their brains removed and placed immediately in ice cold Tris HCl buffer (50 mM, pH 7.4). […] The data are used to calculate either the % inhibition compared to control binding (when only a single concentration of test compound is evaluated) or a Ki value (when a range of concentrations is tested). % Inhibition is calculated as follows: […]
Entries and their measured Ki follow.
measured_attribute: Ki (nM)

compound_structure_string=CC(C)=CCN1C2CCC1CC(=C(c1ccccc1)c1ccsc1)C2 system_under_test="μ-opioid receptor (Rattus norvegicus)" measured_attribute=Ki result_number=177
compound_structure_string=Cc1ccccc1CN1C2CCC1CC(=C(c1ccccc1)c1ccsc1)C2 system_under_test="μ-opioid receptor (Rattus norvegicus)" measured_attribute=Ki result_number=4110
compound_structure_string=c1ccc(C(=C2CC3CCC(C2)N3Cc2cccs2)c2ccsc2)cc1 system_under_test="μ-opioid receptor (Rattus norvegicus)" measured_attribute=Ki result_number=418
compound_structure_string=c1ccc(CCN2C3CCC2CC(=C(c2ccccc2)c2ccsc2)C3)cc1 system_under_test="μ-opioid receptor (Rattus norvegicus)" measured_attribute=Ki result_number=265
compound_structure_string=Cc1ccc(CN2C3CCC2CC(=C(c2ccccc2)c2ccsc2)C3)s1 system_under_test="μ-opioid receptor (Rattus norvegicus)" measured_attribute=Ki result_number=413
compound_structure_string=Cc1ccsc1CN1C2CCC1CC(=C(c1ccc(O)cc1)c1ccsc1)C2 system_under_test="μ-opioid receptor (Rattus norvegicus)" measured_attribute=Ki result_number=187
compound_structure_string=Clc1ccccc1CN1C2CCC1CC(=C(c1ccccc1)c1ccsc1)C2 system_under_test="μ-opioid receptor (Rattus norvegicus)" measured_attribute=Ki result_number=1310
